# HC50 at 0.5 h listing for each entry below
assay: in vitro; details: human, fresh human red blood cells (washed), pH 7.4
Non-standard residues stand in square brackets, D forms with d. Residues, ends and D or L forms follow the SMILES beside them. dDip = N[C@@H](C(=O)O)C(c1ccccc1)c1ccccc1; 2Nal = N[C@@H](Cc1ccc2ccccc2c1)C(=O)O; d2Nal = N[C@H](Cc1ccc2ccccc2c1)C(=O)O
Just the number please, in µg/mL, no unit attached.

Previously resolved entries follow.
molecule="NCCCC[C@@H]1NC(=O)[C@H](CCCCN)NC(=O)[C@H](CCCCN)NC(=O)[C@@H](Cc2ccc3ccccc3c2)NC(=O)[C@@H](Cc2ccc3ccccc3c2)NC(=O)[C@H](Cc2c[nH]c3ccccc23)NC(=O)[C@H](CCCCN)NC1=O [IFX-127, c[Lys-Lys-Lys-Lys-Trp-naI-naI]] (cyclo(KKKKW[d2Nal][d2Nal]))" value_type="HC50 at 0.5 h" measurement=540
molecule="N=C(N)NCCC[C@@H]1NC(=O)[C@H](CCCNC(=N)N)NC(=O)[C@H](CCCNC(=N)N)NC(=O)[C@@H](C(c2ccccc2)c2ccccc2)NC(=O)[C@@H](C(c2ccccc2)c2ccccc2)NC(=O)[C@@H](C(c2ccccc2)c2ccccc2)NC(=O)[C@H](CCCNC(=N)N)NC1=O [IFX-072, c[Arg-Arg-Arg-Arg-dip-dip-dip]] (cyclo(RRRR[dDip][dDip][dDip]))" value_type="HC50 at 0.5 h" measurement=265
molecule="N=C(N)NCCC[C@@H](N)C(=O)N[C@H](CCCNC(=N)N)C(=O)N[C@H](CCCNC(=N)N)C(=O)N[C@H](CCCNC(=N)N)C(=O)N[C@@H](C(=O)N[C@@H](C(=O)N[C@@H](C(=O)O)C(c1ccccc1)c1ccccc1)C(c1ccccc1)c1ccccc1)C(c1ccccc1)c1ccccc1 [IFX-067-1] (H-[dR][dR][dR][dR][dDip][dDip][dDip]-OH)" value_type="HC50 at 0.5 h" measurement=390
molecule="N=C(N)NCCC[C@@H]1NC(=O)[C@H](CCCNC(=N)N)NC(=O)[C@H](CCCNC(=N)N)NC(=O)[C@H](Cc2ccc3ccccc3c2)NC(=O)[C@@H](Cc2ccc3ccccc3c2)NC(=O)[C@H](Cc2ccc3ccccc3c2)NC(=O)[C@H](CCCNC(=N)N)NC1=O [IFX-075, c[Arg-Arg-Arg-Arg-NaI-naI-NaI]] (cyclo(RRRR[2Nal][d2Nal][2Nal]))" value_type="HC50 at 0.5 h" measurement=100
molecule="N=C(N)NCCC[C@@H]1NC(=O)[C@H](CCCNC(=N)N)NC(=O)[C@H](Cc2ccc3ccccc3c2)NC(=O)[C@H](Cc2ccc3ccccc3c2)NC(=O)[C@@H](Cc2ccc3ccccc3c2)NC(=O)[C@H](CCCNC(=N)N)NC(=O)[C@H](CCCNC(=N)N)NC1=O [IFX-076, c[Arg-Arg-Arg-Arg-naI-NaI-NaI]] (cyclo(RRRR[d2Nal][2Nal][2Nal]))" value_type="HC50 at 0.5 h" measurement=100

Please turn your attention to the following entry.
So what's the measured HC50 at 0.5 h for this one? NCCCC[C@@H]1NC(=O)[C@H](CCCCN)NC(=O)[C@H](CCCCN)NC(=O)[C@H](Cc2ccc3ccccc3c2)NC(=O)[C@H](Cc2ccc3ccccc3c2)NC(=O)[C@H](Cc2c[nH]c3ccccc23)NC(=O)[C@H](CCCCN)NC(=O)[C@H](CCCCN)NC1=O [IFX-131, c[Lys-Lys-Lys-Lys-Lys-Trp-NaI-NaI]] (cyclo([2Nal][2Nal]KKKKKW))
690
